Entries below carry reported MIC50 on C. krusei ATCC 6258.

{"COMPOUND": "O=C(/C=C/c1c2ccccc2cc2ccccc12)c1ccc(OCC(O)(Cn2cncn2)c2ccc(F)cc2F)cc1 (stereo not drawn)", "MIC50": "> 2 µg/mL"}
{"COMPOUND": "OC(COc1ccc(C2=NNC(c3ccc(Cl)cc3Cl)C2)cc1)(Cn1cncn1)c1ccc(F)cc1F (stereo not drawn)", "MIC50": "> 8 µg/mL"}

Please tell me the measured MIC50 for O=C(/C=C/c1ccccc1)c1ccc(OCC(O)(Cn2cncn2)c2ccc(F)cc2F)cc1 (stereo not drawn) ; system: C. krusei ATCC 6258.
> 2 µg/mL

src = patent US9512087B2
